Recorded pIC50 for the following compounds
# System: P450 panel (CYP6M2, CYP6P3, CYP6P9a, CYP6P2, CYP9J5, CYP6Z3, CYP6Z2)
# EXPERIMENT NOTES: P450 inhibition, whole P450 panel (mean across P450s)
# Assay type: biochemical, Anopheles gambiae and An. funestus
# EXPERIMENTAL CONTEXT: Anopheles gambiae and Anopheles funestus, recombinant P450s, probe diethoxyfluorescein; mean of the seven P450s of Table S2; read-out: IC50 Mean across P450s
Reminder that pIC50 means the negative base-10 logarithm of the concentration expressed in mol/L.

Qu. Requested field: pIC50. Item: CC1(C)C(C=C(Cl)Cl)C1C(=O)OCc1cccc(Oc2ccccc2)c1 (stereo not shown) [Permethrin, permethrin]
Ans. 5.12
